The reader will find reported pIC50 values listed item by item below.
Molecular target: HCV polymerase (Hepatitis C virus genotype 1b, UniProt P26663)
Construct: 2.5 pmoles (0.15 μg) HCV polymerase protein in a final volume of 75 μL
Sequence (P26663 2420-3010): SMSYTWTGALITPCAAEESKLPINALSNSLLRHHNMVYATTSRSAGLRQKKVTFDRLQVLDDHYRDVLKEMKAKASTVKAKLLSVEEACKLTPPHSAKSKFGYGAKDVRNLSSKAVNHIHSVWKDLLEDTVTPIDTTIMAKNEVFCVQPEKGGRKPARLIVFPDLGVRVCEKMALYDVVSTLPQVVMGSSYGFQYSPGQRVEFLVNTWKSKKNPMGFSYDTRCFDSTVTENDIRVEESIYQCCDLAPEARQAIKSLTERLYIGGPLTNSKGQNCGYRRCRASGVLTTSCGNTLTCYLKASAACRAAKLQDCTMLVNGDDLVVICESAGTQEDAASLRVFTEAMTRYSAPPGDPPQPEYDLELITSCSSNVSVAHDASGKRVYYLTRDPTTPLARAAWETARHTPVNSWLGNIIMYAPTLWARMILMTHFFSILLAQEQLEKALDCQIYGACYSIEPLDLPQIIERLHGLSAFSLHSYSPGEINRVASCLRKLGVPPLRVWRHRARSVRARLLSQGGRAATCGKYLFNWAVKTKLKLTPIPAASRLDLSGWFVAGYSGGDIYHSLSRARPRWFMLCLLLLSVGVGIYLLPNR
Assay: HCV polymerase primer/template-directed transcription assay (32P-GTP incorporation, filter binding)
Format: biochemical
Conditions: recombinant HCV polymerase; 30 minutes at 30° C.; concentration giving 50% inhibition of polymerase-directed transcription; read-out: IC50
Procedure: The compounds described herein were tested for activity with HCV polymerase. […] The filters were counted in a Packard Tri-Lux Microbeta scintillation counter (Packard Bioscience, Meriden, Conn.). […]
# pIC50 is unitless: minus log10 of the molar concentration; print number only

Study these solved cases before continuing.
CN(c1ccc(CCC2(C3CCCC3)CC(=O)CC(=O)O2)cc1)S(C)(=O)=O (stereo not shown) :: 5.64
CC(C)c1ccc(CCC2(C3CCCC3)CC(=O)CC(=O)O2)cc1Cl (stereo not shown) :: 4.96
CCC(C#N)(CC)c1c(F)cc(CCC2(C3CCCC3)CC(O)=C(Cc3nc4ncc(C)cn4n3)C(=O)O2)cc1F (single isomer, unassigned; (-)) [A(264)] :: 8.40
COc1ccc(CCC2(C3CCCC3)CC(O)=C(Sc3nncn3-c3ccccc3)C(=O)O2)cc1Cl (stereo not shown) :: 6.89
CCc1cc(CC)n2nc(CC3C(=O)CC(CCc4ccc(O)c(CC)c4)(C4CCCC4)OC3=O)nc2n1 (stereo not shown) :: 8.10
Cc1cc(C)n2nc(CC3=C(O)CC(CCc4ccc([C@@H](C)O)cc4)(C4CCCC4)OC3=O)nc2n1 (stereo partly shown) :: 7.01

(Q) Any idea what pIC50 was measured for COc1cc(OC)c(CCC2(C3CCCC3)CC(O)=C(Sc3nc4cc(Cl)ccc4n3C(C)C)C(=O)O2)cc1Cl (stereo not shown) ?
(A) 7.46

(Q) Any idea what pIC50 was measured for COc1ccc(CCC2(C3CCCC3)CC(O)=C(Cc3ccc(S(C)(=O)=O)cc3)C(=O)O2)cc1Cl (stereo not shown) ?
(A) 6.40

(Q) Any idea what pIC50 was measured for COc1cc(OC)c(CCC2(C3CCCC3)CC(O)=C(Cc3nc4ccccc4c(=O)[nH]3)C(=O)O2)cc1Cl (stereo not shown) ?
(A) 6.96

(Q) Any idea what pIC50 was measured for O=C1CC(=O)OC(CCc2ccc(C3(C4CC4)CC(=O)CC(=O)O3)cc2)(C2CCCC2)C1 (stereo not shown) ?
(A) 6.40

(Q) Any idea what pIC50 was measured for Cc1cc(C)n2nc(CC3=C(O)CC(CCc4ccc(N(C)S(C)(=O)=O)c(F)c4)(C4CCCC4)OC3=O)nc2n1 (stereo not shown) ?
(A) 6.86

(Q) Any idea what pIC50 was measured for CCc1ccc(O)c(CCC2(C3CCCC3)CC(=O)CC(=O)O2)c1 (stereo not shown) ?
(A) 6.40

---

Biological target: HCV polymerase (Hepatitis C virus genotype 1b, UniProt P26663)
Construct: 2.5 pmoles (0.15 μg) HCV polymerase protein in a final volume of 75 μL
Assay: HCV polymerase primer/template-directed transcription assay (32P-GTP incorporation, filter binding)
Assay type: biochemical
Conditions: recombinant HCV polymerase; 30 minutes at 30° C.; concentration giving 50% inhibition of polymerase-directed transcription; read-out: IC50
Method: The compounds described herein were tested for activity with HCV polymerase. […] The filters were counted in a Packard Tri-Lux Microbeta scintillation counter (Packard Bioscience, Meriden, Conn.). […]
Observable: IC50 (nM)
Write it as a number; the unit nM goes unstated.

O=C1CC(=O)OC(CCc2ccc(Cc3nccs3)c(F)c2)(C2CCCC2)C1 (stereo not drawn) [A(77)] :: 24000
CCc1cc(CCC2(C3CCCC3)CC(=O)CC(=O)O2)cc(Cl)c1O (stereo not drawn) [B(101)] :: 610
CCc1cc(CCC2(C3CCCC3)CC(O)=C(Cc3nc[nH]c3C)C(=O)O2)ccc1O (stereo not drawn) [B(110)] :: 107
COc1ccc(CCC2(C3CCCC3)CC(O)=C(Sc3nc4ccccc4n3C(C)C)C(=O)O2)cc1Cl (stereo not drawn) [C(44)] :: 180
COc1ccc(CCC2(C3CCCC3)CC(O)=C(Sc3nnc(-c4cccnc4)[nH]3)C(=O)O2)cc1Cl (stereo not drawn) [C(92)] :: 82

(Q) Any idea what IC50 was measured for COC1=CC(=O)OC(CCc2ccc(C(C)(C)C#N)c(F)c2)(C2CCCC2)C1 (stereo not drawn) [A(145)] ?
(A) 3900

(Q) Any idea what IC50 was measured for CC(C)(C#N)c1ccc(CCC2(C3CCCC3)CC(=O)CC(=O)O2)cc1Cl (stereo not drawn) [A(147)] ?
(A) 1400

(Q) Any idea what IC50 was measured for N#CC1(c2ccc(CCC3(C4CCCC4)CC(O)=C(Cc4nc5ncc(Cl)cn5n4)C(=O)O3)cc2Cl)CC1 (stereo not drawn) [B(126)] ?
(A) 23

(Q) Any idea what IC50 was measured for CCCc1cc(CCC2(C3CCCC3)CC(=O)CC(=O)O2)ccc1O (stereo not drawn) [A(90)] ?
(A) 770

---

Molecular target: HCV polymerase (Hepatitis C virus genotype 1b)
Construct: 2.5 pmoles (0.15 μg) HCV polymerase protein in a final volume of 75 μL
Assay: HCV polymerase primer/template-directed transcription assay (32P-GTP incorporation, filter binding)
Format: biochemical
Conditions: recombinant HCV polymerase; 30 minutes at 30° C.; concentration giving 50% inhibition of polymerase-directed transcription; read-out: IC50
Observable: IC50 (µM)
Write it as a number; the unit µM goes unstated.

Study these solved cases before continuing.
O=C1CC(=O)OC(CCc2cccc(CCO)c2)(C2CCCC2)C1 (centres unmarked) [A(80)] :: 20
COc1cc(OC)c(CCC2(C3CCCC3)CC(O)=C(Cc3c[nH]c(C)n3)C(=O)O2)cc1Cl (centres unmarked) [B(35)] :: 0.07
CCOc1ccc2[nH]c(SC3=C(O)CC(CCc4ccc(OC)c(Cl)c4)(C4CCCC4)OC3=O)nc2c1 (centres unmarked) [C(59)] :: 0.2
CC(C)Oc1ccc(CCC2(C3CCCC3)CC(O)=C(Sc3cccc4cccnc34)C(=O)O2)cc1F (centres unmarked) [C(01)] :: 0.337
CCC(C#N)(CC)c1c(F)cc(CCC2(C3CCCC3)CC(O)=C(Cc3nc4ncc(C)cn4n3)C(=O)O2)cc1F (single isomer, unassigned; (+)) [A(263)] :: 0.007
CC(=O)Nc1ccc(CCC2(C3CCCC3)CC(=O)CC(=O)O2)cc1F (centres unmarked) [A(07)] :: 13.4
COc1ccc(CCC2(C3CCCC3)CC(O)=C(Cc3nc4nc(C)cc(C)n4n3)C(=O)O2)cc1C1CC1 (centres unmarked) [B(107)] :: 0.006

(Q) Any idea what IC50 was measured for CC(C)Oc1ccc(CCC2(C3CCCC3)CC(O)=C(Sc3ccc(O)cc3)C(=O)O2)cc1F (centres unmarked) [C(08)] ?
(A) 0.31

---

Biological target: HCV polymerase (Hepatitis C virus genotype 1b, UniProt P26663)
Construct: 2.5 pmoles (0.15 μg) HCV polymerase protein in a final volume of 75 μL
Experiment: HCV polymerase primer/template-directed transcription assay (32P-GTP incorporation, filter binding)
Assay type: biochemical
Conditions: recombinant HCV polymerase; 30 minutes at 30° C.; concentration giving 50% inhibition of polymerase-directed transcription; read-out: IC50
The reader will find reported IC50 values listed item by item below.
Please report the result as a number followed by the unit.

Study these solved cases before continuing.
COc1ccc(CCC2(C3CCCC3)CC(O)=C(Sc3nc4c(O)cccc4[nH]3)C(=O)O2)cc1Cl (stereo not drawn) :: 140 nM
CCc1cc(CCC2(C3CCCC3)CC(O)=C(Cc3nc4ncc(C)cn4n3)C(=O)O2)cc(CC)c1O (stereo not drawn) :: 11 nM
COC(=O)C(C)(C)Oc1ccc(CCC2(C3CCCC3)CC(=O)CC(=O)O2)cc1Cl (stereo not drawn) :: 3300 nM
Cn1c(CC2=C(O)CC(CCc3ccc(C(C)(C)C#N)c(F)c3)(C3CCCC3)OC2=O)nc2cc(Cl)ccc21 (stereo not drawn) :: 10 nM
Cc1cc(C)n2nc(SC3=C(O)CC(CCNC(=O)CCc4ccco4)(C4CCCC4)OC3=O)nc2n1 (stereo not drawn) :: 60000 nM
COc1ccc(CCC2(C3CCCC3)CC(O)=C(Sc3nc4c(C)cccc4[nH]3)C(=O)O2)cc1Cl (stereo not drawn) :: 220 nM
CCc1ccc(O)c(CCC2(C3CCCC3)CC(O)=C(Cc3nc4ncc(C)cn4n3)C(=O)O2)c1 (single isomer, unassigned; enantiomer 1) [A(174)] :: 6 nM
CC(C)Oc1ccc(CCC2(C3CCCC3)CC(=O)CC(=O)O2)cc1F (single isomer, unassigned) [J(2)] :: 3900 nM

(Q) Any idea what IC50 was measured for COc1ccc(CCC2(C3CCCC3)CC(O)=C(Sc3nc4cc(C(F)(F)F)cc(Cl)c4[nH]3)C(=O)O2)cc1Cl (stereo not drawn) ?
(A) 500 nM

(Q) Any idea what IC50 was measured for N#CC1(c2ccc(CCC3(C4CCCC4)CC(=O)C(Cc4nc5ncccn5n4)C(=O)O3)cc2F)CC1 (stereo not drawn) ?
(A) 10 nM

(Q) Any idea what IC50 was measured for Cc1noc(C)c1-c1ccc(CCC2(C3CCCC3)CC(O)=C(Sc3nc4cc(Cl)ccc4n3C)C(=O)O2)cc1 (stereo not drawn) ?
(A) 14 nM

(Q) Any idea what IC50 was measured for CCc1cc(CCC2(C3CCCC3)CC(=O)CC(=O)O2)ccc1OC (stereo not drawn) ?
(A) 3200 nM

(Q) Any idea what IC50 was measured for O=C1CC(=O)OC(CCc2ccc(O)c(F)c2)(C2CCCC2)C1 (stereo not drawn) ?
(A) 8900 nM

(Q) Any idea what IC50 was measured for N#CC1(c2ccc(CCC3(C4CCCC4)CC(=O)CC(=O)O3)cc2F)CCCC1 (stereo not drawn) ?
(A) 2900 nM

(Q) Any idea what IC50 was measured for O=C1CC(=O)OC(CCC#Cc2ccc(F)cc2)(C2CCCC2)C1 (stereo not drawn) ?
(A) 25000 nM

(Q) Any idea what IC50 was measured for CCc1cccc(CCC2(C3CCCC3)CC(=O)CC(=O)O2)c1 (stereo not drawn) [A(66)] ?
(A) 3600 nM

(Q) Any idea what IC50 was measured for O=C1OC(CCC#Cc2cccc(O)c2)(C2CCCC2)CC(O)=C1Sc1nccs1 (stereo not drawn) ?
(A) 7500 nM

(Q) Any idea what IC50 was measured for N#CC1(c2ccc(CCC3(C4CCCC4)CC(=O)CC(=O)O3)cc2Cl)CC1 (stereo not drawn) ?
(A) 3900 nM

(Q) Any idea what IC50 was measured for CCC1(c2ccc(CCC3(C4CCCC4)CC(=O)CC(=O)O3)cc2Cl)CC(=O)CC(=O)O1 (stereo not drawn) ?
(A) 840 nM

(Q) Any idea what IC50 was measured for COc1cc(OC)c(CCC2(C3CCCC3)CC(O)=C(Cc3cn4cccnc4n3)C(=O)O2)cc1Cl (stereo not drawn) ?
(A) 6 nM

(Q) Any idea what IC50 was measured for Cc1cc(C(=O)N[C@H](C)c2ccc(CCC3(C4CCCC4)CC(=O)CC(=O)O3)cc2)no1 (stereo partly drawn) ?
(A) 20000 nM

(Q) Any idea what IC50 was measured for COc1cc(OC)c(CCC2(C3CCCC3)CC(O)=C(Cc3nn(C)cc3Cl)C(=O)O2)cc1Cl (stereo not drawn) ?
(A) 70 nM

(Q) Any idea what IC50 was measured for CCc1ccc(O)c(CCC2(C3CCCC3)CC(O)=C(Cc3nc4ncc(Cl)cn4n3)C(=O)O2)c1 (single isomer, unassigned; enantiomer 1) [A(171)] ?
(A) 4 nM
